The following compounds are shown together with reported melting point values.

chemical structure	melting point
Cc1ccc(C(=O)/C=C/c2cc(C)n(-c3ccc([N+](=O)[O-])cc3)c2C)cc1	172 to 173 °C
Cc1cc(/C=C/C(=O)c2ccc([N+](=O)[O-])cc2)c(C)n1-c1ccc([N+](=O)[O-])cc1	175 to 178 °C
Cc1cc(/C=C/C(=O)c2ccccc2)c(C)n1-c1ccc([N+](=O)[O-])cc1	169 to 174 °C
COc1ccc(C(=O)/C=C/c2cc(C)n(-c3ccc([N+](=O)[O-])cc3)c2C)cc1	157 to 158 °C
Cc1cc(/C=C/C(=O)c2ccc(F)cc2)c(C)n1-c1ccc([N+](=O)[O-])cc1	160 to 164 °C
